B1: HDV Ribozyme (parent)
chain: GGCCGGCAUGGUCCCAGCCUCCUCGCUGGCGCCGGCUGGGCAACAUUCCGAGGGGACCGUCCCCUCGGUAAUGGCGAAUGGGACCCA

variants of: B1; assay: self-cleavage, relative activity (ratio to wild type); higher = more cleavage; co-transcriptional
# self-cleavage annotations

{"Sequence change": "A45G A83U", "self-cleavage": 0.485}
{"Sequence change": "A8C G52U", "self-cleavage": 0.566}
{"Sequence change": "U23A A71G", "self-cleavage": 0.8}
{"Sequence change": "U9G A78C", "self-cleavage": 0.208}
{"Sequence change": "G2U G6A", "self-cleavage": 0.0355}
{"Sequence change": "C24U U27C", "self-cleavage": 0.332}
{"Sequence change": "G2A A71G", "self-cleavage": 0.241}
{"Sequence change": "C61A C75U", "self-cleavage": 0.178}
{"Sequence change": "C41G A77C", "self-cleavage": 0.222}
{"Sequence change": "G53A C64U", "self-cleavage": 0.968}
{"Sequence change": "G59U A77C", "self-cleavage": 0.453}
{"Sequence change": "U37C G50U", "self-cleavage": 0.923}
{"Sequence change": "C15G G50A", "self-cleavage": 0.723}
{"Sequence change": "U37G G55C", "self-cleavage": 0.141}
{"Sequence change": "C14A C49G", "self-cleavage": 0.101}
{"Sequence change": "C24G G59C", "self-cleavage": 0.0923}
{"Sequence change": "G29A A78C", "self-cleavage": 0.0997}
{"Sequence change": "C26A G76C", "self-cleavage": 1.08}
{"Sequence change": "G34A A42C", "self-cleavage": 0.0354}
{"Sequence change": "G52U C75A", "self-cleavage": 0.148}
{"Sequence change": "C4U U65A", "self-cleavage": 0.727}
{"Sequence change": "C30A G76C", "self-cleavage": 0.464}
{"Sequence change": "C14U G81C", "self-cleavage": 0.806}
{"Sequence change": "C18A G55A", "self-cleavage": 0.0314}
{"Sequence change": "U20G C75A", "self-cleavage": 0.0978}
{"Sequence change": "U12G G82A", "self-cleavage": 0.499}
{"Sequence change": "A70C A83C", "self-cleavage": 0.434}
{"Sequence change": "U23A G53U", "self-cleavage": 0.923}
{"Sequence change": "C26A G34U", "self-cleavage": 0.683}
{"Sequence change": "G53U G74A", "self-cleavage": 0.646}
{"Sequence change": "C19A C49G", "self-cleavage": 0.0733}
{"Sequence change": "G1U G54U", "self-cleavage": 0.358}
{"Sequence change": "C22G A70U", "self-cleavage": 0.173}
{"Sequence change": "C18A C86G", "self-cleavage": 0.185}
{"Sequence change": "C18A C57G", "self-cleavage": 0.208}
{"Sequence change": "G29U C62G", "self-cleavage": 0}
{"Sequence change": "G39A G53C", "self-cleavage": 0.383}
{"Sequence change": "C33A G59U", "self-cleavage": 0.338}
{"Sequence change": "G10A U79A", "self-cleavage": 0.302}
{"Sequence change": "C32G G40C", "self-cleavage": 0.0755}
{"Sequence change": "C61G C64A", "self-cleavage": 0.582}
{"Sequence change": "G25U G74U", "self-cleavage": 0.0268}
{"Sequence change": "G31U C62G", "self-cleavage": 0.19}
{"Sequence change": "U9A A51U", "self-cleavage": 0.914}
{"Sequence change": "U69C G73U", "self-cleavage": 0.489}
{"Sequence change": "C26G G35U", "self-cleavage": 0.499}
